Origin of measurements: patent US20100184989A1

Biological target: calcium channel type L (Rattus norvegicus, UniProt P22002)
Sequence (P22002 whole entry): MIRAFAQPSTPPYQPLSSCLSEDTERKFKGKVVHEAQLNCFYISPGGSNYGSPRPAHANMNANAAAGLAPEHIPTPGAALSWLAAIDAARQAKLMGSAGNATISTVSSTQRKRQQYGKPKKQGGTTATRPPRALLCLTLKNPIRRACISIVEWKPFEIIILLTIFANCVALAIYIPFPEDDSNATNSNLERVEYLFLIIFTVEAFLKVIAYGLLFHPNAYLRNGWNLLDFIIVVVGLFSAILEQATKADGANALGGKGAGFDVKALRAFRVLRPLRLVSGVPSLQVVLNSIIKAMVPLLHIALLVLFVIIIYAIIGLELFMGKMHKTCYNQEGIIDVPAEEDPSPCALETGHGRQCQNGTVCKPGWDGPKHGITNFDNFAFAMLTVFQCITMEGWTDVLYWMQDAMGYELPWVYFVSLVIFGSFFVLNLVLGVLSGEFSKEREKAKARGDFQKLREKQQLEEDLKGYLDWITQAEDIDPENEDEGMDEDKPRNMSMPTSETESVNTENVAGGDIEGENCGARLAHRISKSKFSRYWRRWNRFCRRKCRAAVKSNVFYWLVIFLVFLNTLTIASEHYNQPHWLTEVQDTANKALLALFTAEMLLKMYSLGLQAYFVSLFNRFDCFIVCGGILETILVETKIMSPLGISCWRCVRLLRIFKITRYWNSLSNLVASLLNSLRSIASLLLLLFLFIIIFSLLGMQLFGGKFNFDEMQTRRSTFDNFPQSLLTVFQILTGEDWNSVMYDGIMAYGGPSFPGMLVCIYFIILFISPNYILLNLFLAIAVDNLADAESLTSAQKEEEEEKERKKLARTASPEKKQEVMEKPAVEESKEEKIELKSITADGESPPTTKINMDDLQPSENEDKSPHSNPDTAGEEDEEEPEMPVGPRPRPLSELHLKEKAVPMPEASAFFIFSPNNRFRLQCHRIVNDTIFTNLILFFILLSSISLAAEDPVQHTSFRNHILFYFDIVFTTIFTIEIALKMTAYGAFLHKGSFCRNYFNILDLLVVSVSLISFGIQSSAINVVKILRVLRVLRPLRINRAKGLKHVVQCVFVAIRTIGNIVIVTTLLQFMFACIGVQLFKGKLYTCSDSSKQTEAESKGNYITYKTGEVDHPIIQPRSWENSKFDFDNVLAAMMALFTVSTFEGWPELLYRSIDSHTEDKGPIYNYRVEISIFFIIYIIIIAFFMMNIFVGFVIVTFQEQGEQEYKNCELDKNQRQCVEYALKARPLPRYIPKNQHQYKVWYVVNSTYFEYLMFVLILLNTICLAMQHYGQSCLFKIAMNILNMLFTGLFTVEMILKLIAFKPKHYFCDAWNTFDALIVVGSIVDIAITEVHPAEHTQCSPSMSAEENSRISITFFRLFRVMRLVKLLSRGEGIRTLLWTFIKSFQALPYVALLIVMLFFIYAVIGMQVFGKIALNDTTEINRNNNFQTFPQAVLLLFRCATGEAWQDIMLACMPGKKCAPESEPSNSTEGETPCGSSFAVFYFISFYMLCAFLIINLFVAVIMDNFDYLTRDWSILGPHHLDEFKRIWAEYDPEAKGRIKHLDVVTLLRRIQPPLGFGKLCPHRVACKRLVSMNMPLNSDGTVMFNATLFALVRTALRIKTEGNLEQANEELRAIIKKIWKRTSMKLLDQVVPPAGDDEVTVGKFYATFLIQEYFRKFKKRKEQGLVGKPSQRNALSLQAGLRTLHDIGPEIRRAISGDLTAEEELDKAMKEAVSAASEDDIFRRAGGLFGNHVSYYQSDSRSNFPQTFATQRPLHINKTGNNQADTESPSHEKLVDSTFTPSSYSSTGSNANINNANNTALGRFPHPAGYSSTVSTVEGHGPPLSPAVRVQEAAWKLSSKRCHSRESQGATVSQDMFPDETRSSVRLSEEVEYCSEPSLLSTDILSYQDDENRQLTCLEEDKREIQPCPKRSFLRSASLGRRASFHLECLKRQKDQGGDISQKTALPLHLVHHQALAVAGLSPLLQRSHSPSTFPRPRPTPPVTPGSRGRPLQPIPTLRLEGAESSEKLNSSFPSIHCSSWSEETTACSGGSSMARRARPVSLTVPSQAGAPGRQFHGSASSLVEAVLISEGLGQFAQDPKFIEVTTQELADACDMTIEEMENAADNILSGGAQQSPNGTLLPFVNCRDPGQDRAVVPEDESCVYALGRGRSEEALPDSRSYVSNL
Test: Calcium channel type L binding assay, [3H]Nitrendipine displacement
Conditions: rat cortical membranes; [3H]Nitrendipine 0.2 nM; 50 mM TRIS-HCl pH 7.7, 25° C., 60 minutes; nifedipine reference value given beside each test compound
Protocol: In the assay, rat cortical membranes were used as a receptor source and the radioligand [^3H]Nitrendipine (70-87 Ci/mmol) was used at a final ligand concentration of 0.2 nM. […] Radioactivity trapped onto the filters was determined and compared to control values in order to ascertain any interactions of test compound with the nitredipine binding site (Gould, Murphy, and Snyder. Molecular Pharmacology 25, 235-241 (1984)).
Property label: IC50 (nM)

Ask: Need IC50, item CCCCCCOCCOCCOC(=O)C1=C(C)NC(C)=C(C(=O)OCCOCCOCCCCCC)C1c1ccccc1[N+](=O)[O-] [compound (6c) from Example 3]
Reply: 55.6

I: COCCOCCOC(=O)C1=C(C)NC(C)=C(C(=O)OCCOCCOC)C1c1ccccc1[N+](=O)[O-] [compound (6a) from Example 3]
II: CCCCOCCOCCOC(=O)C1=C(C)NC(C)=C(C(=O)OCCOCCOCCCC)C1c1ccccc1[N+](=O)[O-] [compound (6b) from Example 3]
III: COCCOCCOCCOC(=O)C1=C(C)NC(C)=C(C(=O)OCCOCCOCCOC)C1c1ccccc1[N+](=O)[O-] [compound (2) from Example 1]
Ask: Sort by IC50, descending. As an answer, provide the labels arranged in the order called for.
Reply: III, I, II
(III: 160 nM, I: 67.4 nM, II: 15.5 nM)
